The reported measurements were obtained from patent US4570006A.

# ASSAYED_SYSTEM: Thrombin (Homo sapiens)
# ASSAY_OVERVIEW: biochemical
# ASSAY_CONDITIONS: TAME hydrolysis; read-out: ID50, thrombin
# IC50 annotations
REPORTED_METRIC: IC50 (µM)

INSERT INTO measurements (molecule, sign_qualifier, endpoint_value) VALUES
  ('CC(=O)Oc1ccc(C(=N)N)cc1[N+](=O)[O-] [Compound 2, 4-amidino-2-nitrophenyl acetate]', '>', 10),
  ('COc1cc(C(=N)N)ccc1OC(=O)c1ccc(CNC(=O)OCc2ccccc2)cc1 [Compound 57]', '=', 8),
  ('N=C(N)c1ccc(OC(=O)c2ccccc2)c(C(=O)O)c1 [Compound 24, 4-amidino-2-carboxyphenyl benzoate]', '=', 4),
  ('CC(=O)Oc1ccc(C(=N)N)cc1C(=O)c1ccccc1 [Compound 1, 4-amidino-2-benzoylphenyl acetate]', '>', 10);
